system: MOLT-4; test: Cytotoxicity against human MOLT4 cells assessed as cell growth at 10 uM after 48 hrs by sulforhodamine B assay; type: functional; details: MOLT-4, 48 h, read-out: Activity
Quick list: growth at 10 µM per entry.
reportedMetric: growth at 10 µM

>>> datavalue("COc1cc(C)cc(-c2c(-c3ccnc(-c4ccc(N(C)C)cc4)c3)cnn2CC#N)c1")
"1%"
>>> datavalue("Cc1cc(O)cc(-c2nn(CC#N)cc2-c2ccnc(-c3ccc(N(C)C)cc3)c2)c1")
"-6%"
>>> datavalue("COc1cc(C)cc(-c2nn(CC#N)cc2-c2ccnc(-c3ccc(N(C)C)cc3)c2)c1")
"1%"
>>> datavalue("Cc1cc(O)cc(-c2nn(CC#N)cc2-c2ccnc(-c3ccc(Oc4ccccc4)cc3)c2)c1")
"-21%"
>>> datavalue("COc1cc(C)cc(-c2c(-c3ccnc(-c4ccc(C(C)=O)cc4)c3)cnn2CC#N)c1")
"14%"
>>> datavalue("COc1cc(C)cc(-c2nn(CC#N)cc2-c2ccc(-c3cccc(C(C)=O)c3)nc2)c1")
"14%"

====

tested on: PC-3; experiment: Cytotoxicity against human PC3 cells assessed as cell growth at 100 nM after 48 hrs by sulforhodamine B assay; format: functional; conditions: PC-3, 48 h, read-out: Activity
reportedMetric: growth at 0.1 µM (%)

>>> datavalue("COc1cc(C)cc(-c2nn(CC#N)cc2-c2ccc(-c3cccc(C(C)=O)c3)nc2)c1")
85
>>> datavalue("Cc1cc(O)cc(-c2nn(CC#N)cc2-c2ccnc(-c3ccc(Oc4ccccc4)cc3)c2)c1")
81
>>> datavalue("COc1cc(C)cc(-c2nn(CC#N)cc2-c2ccnc(-c3ccc(N(C)C)cc3)c2)c1")
14
>>> datavalue("COc1cc(C)cc(-c2c(-c3ccnc(-c4ccc(N(C)C)cc4)c3)cnn2CC#N)c1")
11
>>> datavalue("Cc1cc(O)cc(-c2nn(CC#N)cc2-c2ccnc(-c3ccc(N(C)C)cc3)c2)c1")
94
>>> datavalue("COc1cc(C)cc(-c2c(-c3ccnc(-c4ccc(C(C)=O)cc4)c3)cnn2CC#N)c1")
83

====

system: TK-10; test: Growth inhibition of human TK10 cells after 48 hrs by sulforhodamine B assay; assay type: functional; details: TK-10, 48 h, read-out: LC50 (the source's name)
Readings of CC50 for the listed molecules
reportedMetric: CC50

>>> datavalue("COc1cc(C)cc(-c2nn(CC#N)cc2-c2ccc(-c3cccc(C(C)=O)c3)nc2)c1")
"> 100 µM"
>>> datavalue("COc1cc(C)cc(-c2c(-c3ccnc(-c4ccc(C(C)=O)cc4)c3)cnn2CC#N)c1")
"> 100 µM"
>>> datavalue("COc1cc(C)cc(-c2nn(CC#N)cc2-c2ccnc(-c3ccc(N(C)C)cc3)c2)c1")
"> 100 µM"
>>> datavalue("COc1cc(C)cc(-c2c(-c3ccnc(-c4ccc(N(C)C)cc4)c3)cnn2CC#N)c1")
"> 100 µM"
>>> datavalue("Cc1cc(O)cc(-c2nn(CC#N)cc2-c2ccnc(-c3ccc(N(C)C)cc3)c2)c1")
"> 100 µM"
>>> datavalue("Cc1cc(O)cc(-c2nn(CC#N)cc2-c2ccnc(-c3ccc(Oc4ccccc4)cc3)c2)c1")
"43.6 µM"

====

tested on: A549; test: Cytotoxicity against human A549 cells assessed as cell growth at 100 nM after 48 hrs by sulforhodamine B assay; assay type: functional; conditions: A549, 48 h, read-out: Activity
growth at 0.1 µM overview
reportedMetric: growth at 0.1 µM

>>> datavalue("COc1cc(C)cc(-c2c(-c3ccnc(-c4ccc(C(C)=O)cc4)c3)cnn2CC#N)c1")
"83%"
>>> datavalue("Cc1cc(O)cc(-c2nn(CC#N)cc2-c2ccnc(-c3ccc(N(C)C)cc3)c2)c1")
"95%"
>>> datavalue("Cc1cc(O)cc(-c2nn(CC#N)cc2-c2ccnc(-c3ccc(Oc4ccccc4)cc3)c2)c1")
"87%"
>>> datavalue("COc1cc(C)cc(-c2nn(CC#N)cc2-c2ccnc(-c3ccc(N(C)C)cc3)c2)c1")
"36%"
>>> datavalue("COc1cc(C)cc(-c2nn(CC#N)cc2-c2ccc(-c3cccc(C(C)=O)c3)nc2)c1")
"91%"
>>> datavalue("COc1cc(C)cc(-c2c(-c3ccnc(-c4ccc(N(C)C)cc4)c3)cnn2CC#N)c1")
"10%"
